target of assay: Tpm4.2-containing actin microfilaments (Mus musculus, UniProt Q6IRU2)
Construct: investigated in primary mouse embryonic fibroblast (PMEF) cells; endogenous in cells; host or cells: primary mouse embryonic fibroblast (PMEF) cells
Sequence (Q6IRU2 whole entry): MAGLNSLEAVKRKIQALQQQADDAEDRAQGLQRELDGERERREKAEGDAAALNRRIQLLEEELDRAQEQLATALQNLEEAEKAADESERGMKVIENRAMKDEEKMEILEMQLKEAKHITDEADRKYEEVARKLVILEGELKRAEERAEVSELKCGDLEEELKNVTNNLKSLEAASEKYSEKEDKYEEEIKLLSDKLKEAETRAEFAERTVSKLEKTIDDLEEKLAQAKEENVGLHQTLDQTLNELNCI
method notes: Disruption of Tpm4.2-containing actin microfilaments in PMEF cells, images assessed visually
Assay type: cell-based
reported conditions: PMEF cells stably expressing Tpm4.2 labelled with the NeonGreen fluorophore (footnote a)
measurement type: Filament Disruption (minimum test concentration at which filament disruption was observed)

{"compound": "CC(CO)(CO)NCCn1ccc2ccc(OCCc3ccccc3)cc21 [Compound 1]", "result": "4.0^a μM"}
{"compound": "CC(CO)(CO)NCCn1ccc2ccc(OCCc3cccc(F)c3)cc21 [Compound 3]", "result": "4.0^a μM"}
{"compound": "CC(CO)(CO)NCCn1ccc2ccc(OCCc3ccc(F)cc3)cc21 [Compound 4]", "result": "3.0^a μM"}

IN: Please supply the value of reported Filament Disruption (minimum test concentration at which filament disruption was observed) for the item CC(CO)(CO)NCCn1ccc2ccc(OCCc3ccccc3F)cc21 [Compound 2]
OUT: 4.0^a μM
